Each recorded value in this set is attributed to the supplement of paper PMC9170038.

test system: MS2 coat protein; assay: apparent KD of MS2 coat protein; designed switch direction (-1 OFF switch, 1 ON switch): -1; higher = weaker reporter binding; conditions: Eterna round: R98; input ligand: FMN 200 uM
Assay readout: apparent KD of MS2 coat protein (µM)
Just the number please, in µM, no unit attached.

[ask] Retrieve apparent KD of MS2 coat protein measured for GCACUGGAUGUAGGAUAUCAGGACGAUAAGUCCUGAGAAGGACAUGAGGAUCACCCAUGUGAAUAAAACCAGUGCAAUAAUAUA [Denovo Exng1 22] and print it.
[reply] 0.0309

[ask] Retrieve apparent KD of MS2 coat protein measured for AACAGCGUAGAUAAUAAUGAUUACAUGAGGAUCACCCAUGUAUAGGAUAUGCAGUGGAAUACACUGCAGAAGGAUACAUCGCUG [Exclusion NG 3/18-B1] and print it.
[reply] 0.033

[ask] Retrieve apparent KD of MS2 coat protein measured for AAUAUAAAAGAGCUGGAUAACUCAACAUGAGGAUCACCCAUGUAGGAUAUCAGCACGAUAAGUGCUGAGAAGGACAACCAGCUC [Denovo 69] and print it.
[reply] 0.0162

[ask] Retrieve apparent KD of MS2 coat protein measured for AGCUGUGGCCGAGGAUAUCUAUCUUCAAUAACCGAAAUAUAAUCGGACAUGAGGAUCACCCAUGUAGAGAAGGCGGUCUCAGCA [Eli xng2 2.033] and print it.
[reply] 0.1

[ask] Retrieve apparent KD of MS2 coat protein measured for UGUUGUUACGCAGGAUAUUGCCAACAGGCAGUAGGAUAUCCGAAAGGAGAAGGACCGCCAACAGGCGAGAAGGGCGGGUUAACA [pwkr exNG2 2xF7 2FMN.10 scored 83] and print it.
[reply] 0.035

[ask] Retrieve apparent KD of MS2 coat protein measured for UCAUACAUGAGGAUCUCCCAUGACAUGAGGAUCACCCAUGUGCAGGAUAUACGUGAUAUAAUAUAGUAGAAGGGCAGACUAUAU [LRO008_Exclusion NG 3] and print it.
[reply] 0.192

[ask] Retrieve apparent KD of MS2 coat protein measured for UUCUGUGCCCAAAGUUUAAGCACAUGAGGAUCACCCAUGUGAAAGGAUAUGUGGCGUGUAACGUUAUAGAAGGUUCACAAUAAA [Edorcetila] and print it.
[reply] 0.0749

[ask] Retrieve apparent KD of MS2 coat protein measured for UAUAUAAUUAAGAGCUGGACCAAAACAUGAGGAUCACCCAUGUAGGAUAUCAGCACGAUAAGUGCUGAGAAGGACUACCAGCUC [Denovo 83] and print it.
[reply] 0.0224

[ask] Retrieve apparent KD of MS2 coat protein measured for AUGACAGGCAAAGCGCAACGGCGAACAUGAGGAUCACCCAUGUAGGAUAUGCUACACAAAGUGUAGCAGAAGGACAUACGACGA [Ex NG2 #82] and print it.
[reply] 0.0886

[ask] Retrieve apparent KD of MS2 coat protein measured for CCAUACAUGAGGAUCACCCAUGACAUGAGGAUCACCCAUGUGCAGGAUAUACGUGAUAUAAUAAAGUAGAAGGGCAGACCAAAA [LRO002_Exclusion NG 3] and print it.
[reply] 0.0874

[ask] Retrieve apparent KD of MS2 coat protein measured for UCACAGUGUCGUUAUCCGUAGCGAACAUGAGGAUCACCCAUGUAGGAUAUGUUAUUAAACUAAUAACAGAAGGACGUUAGUCGG [Ex NG3 #21] and print it.
[reply] 0.0943

[ask] Retrieve apparent KD of MS2 coat protein measured for UAUAUAAUAAGAGCUGGAACUCAAACAUGAGGAUCACCCAUGUAGGAUAUCAGCACGAUAAGUGCUGAGAAGGACAACCAGCUC [Denovo 75] and print it.
[reply] 0.0212

[ask] Retrieve apparent KD of MS2 coat protein measured for AUGCUUCACACAGGAUAUACAUGAGGAUCACCCAUGUGUGGGCGGUAGCUGACACGAGCUACCGGGUAGAAGGGUGUGAAGCAU [xclu_NG2_cac21] and print it.
[reply] 0.127
